- assayComment: qHTS Assay for Lipid Storage Modulators in Drosophila S3 Cells;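 on cell number change: cells counted by Cell Tracker Red CMTPX staining in the red channel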
- condition: BODIPY lipid droplet fluorescence, 18-24 h, cells fed with added oleic acid; measured here: cell count max response
About 2,100 (0.66%) of roughly 320,000 compounds were called active. Another 53% or so got no clear call; they are omitted. The full list was thinned out, with actives kept by preference.
Kindly supply the reported cell number change values for the records listed here.
Quick note: unit goes after the number.

Here's what some known entries look like.
| molecule | cell number change |
| --- | --- |
| O=C(NC1CCCC1)C1CCC(=O)N1C1CCCCC1 (stereo unspecified) | 1.84% |
| O=C(C1=C(O)C(=O)N(c2ncccn2)C1c1ccc(Cl)cc1)c1ccco1 (stereo unspecified) | 8.73% |
| Cc1ccc(CNC(=O)CSc2nccn(-c3ccc(C)c(F)c3)c2=O)cc1 | -20% |
| O=C(C1=C(O)C(=O)N(c2ncccn2)C1c1cccc(Cl)c1)c1ccco1 (stereo unspecified) | 5.29% |

Provide each entry's cell number change from the list below.
1. COc1ccc(-c2cc(CNC(C)=O)on2)cc1
2. COc1ccc(-c2cc(CNC(=O)CCl)on2)cc1

Ans:
1: 0.804%; 2: 8.76%

* * *

Kindly supply the reported cell number change values for the records listed here.
- assayComment: qHTS Assay for Lipid Storage Modulators in Drosophila S3 Cells;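 on cell number change: cells counted by Cell Tracker Red CMTPX staining in the red channel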
- condition: BODIPY lipid droplet fluorescence, 18-24 h, cells fed with added oleic acid; measured here: cell count max response
Hit rate of the full screen: of about 320,000 compounds, about 2,100 (0.66%) were called active. About 53% were inconclusive and are not listed. The full list was thinned out, with actives kept by preference.
One number for each entry, in %.

Here's what some known entries look like.
| compound | cell number change (%) |
| --- | --- |
| O=C(CC1Sc2ccccc2NC1=O)Nc1cccc(-c2nnc3n2CCCCC3)c1 (configuration not stated) | 4.38 |
| CCCOc1ccc(S(=O)(=O)NNC(=O)c2cc3ccccc3o2)cc1 | -21.5 |
| Cc1cc(C)nc(SCC(=O)Nc2nccs2)n1 | 13.1 |
| O=[N+]([O-])c1ccc(N2CCCC2)nc1N1CCCC1 | 16.9 |
| COc1ccc(/C(C)=N/NC(=O)CNC(=O)c2cccnc2)cc1 | 7.78 |
| O=S(=O)(Nc1ccc(-n2cnnn2)cc1)c1ccc(Cl)cc1 | -6.89 |
| CCOc1ccc(S(=O)(=O)Oc2ccc3ccccc3c2)cc1 | -10 |
| O=C1NCCN(Cc2ccc(Cl)c(F)c2)C1CC(=O)N1CCCCO1 (configuration not stated) | 5.73 |

Provide each entry's cell number change from the list below.
1. Cc1ccc(S(=O)(=O)Nc2ccc(-n3cnnn3)cc2)c(C)c1
2. S=C1NC2=C(CCCC2)C2(CCCCC2)N1

Ans:
1: -8.9; 2: 0.876

Provide each entry's cell number change from the list below.
1. CCC(Sc1nc(C)cc(C)n1)C(=O)Nc1nccs1 (configuration not stated)
2. O=S(=O)(Nc1cccc(-n2cnnn2)c1)c1cc(Br)ccc1Br

Ans:
[-0.54, -10.7]

* * *

- assayComment: qHTS Assay for Lipid Storage Modulators in Drosophila S3 Cells
- condition: BODIPY lipid droplet fluorescence, 18-24 h, cells fed with added oleic acid; series mostly up to 46.1 µM
The whole screen tested about 320,000 compounds, of which about 2,100 (0.66%) were called active. Another 53% or so got no clear call; they are omitted. The entries come from a sample that favours actives as a whole.
endpointLabel: outcome

| compound | outcome |
| --- | --- |
| CC(C)(C)C(=O)Nc1ccc(C(=O)N/N=C/c2ccccc2OC(=O)c2ccc(Cl)cc2)cc1 | inactive |
| CCC(C)NC(=O)c1c(N)n(/N=C/c2ccccn2)c2nc3ccccc3nc12 (stereo not given) | inactive |
| COCCNC(=O)c1c(N)n(/N=C/c2ccc(F)cc2)c2nc3ccccc3nc12 | inactive |
| COc1ccc2c(c1OC)C(=O)N1C2SC[C@H]1C(=O)NC1CC1 (stereo not given in full) | inactive |

Let's switch to this compound now.
Q: Consider the compound CC(C)C(=O)Nc1ccc(-c2nc3ncccc3o2)cc1 and give its recorded outcome.
Ans: inactive
